Each entry below carries its recorded pIC50.
# ASSAY SYSTEM: T1, human HER3-Fc (R&D Systems, 348-RB) (human, UniProt P21860 20-643)
# T1 construct: Bought; also called hHER3-Fc; Fc-HER3; Fc part of the bought chimera not given, not described
# ASSAY SUMMARY: HRG competition alphascreen
Answer as the number alone; pIC50 is minus log10 of concentration in mol/L.

BINDER | pIC50
HER3MS00049 (VHH, 21F06 basic + G40A + D44E; also called HER3MS0049) VHH: EVQLVESGGGLVQPGGSLRLSCAASGRTYYLNAMGWFRQAPGKEREFVAAIDWSDGNKDYADSVKGRFTISRDNSKNTVYLQMNSLRPEDTAVYYCAADTPPWGPMIYIESYDSWGQGTLVTVSS | 9.60

Task: Return reported pIC50. Input binder: HER3MS00048 (VHH, 21F06 basic + D44E; also called HER3MS0048) VHH: EVQLVESGGGLVQPGGSLRLSCAASGRTYYLNAMGWFRQGPGKEREFVAAIDWSDGNKDYADSVKGRFTISRDNSKNTVYLQMNSLRPEDTAVYYCAADTPPWGPMIYIESYDSWGQGTLVTVSS
Result: 9.57

Task: Give the reported value of pIC50 for this record: HER3MS00046 (VHH, 21F06 + A14P, A74S, K83R, Q108L; also called HER3MS0046; 21F06 basic variant) VHH: EVQLVESGGGLVQPGGSLRLSCAASGRTYYLNAMGWFRQGPGKDREFVAAIDWSDGNKDYADSVKGRFTISRDNSKNTVYLQMNSLRPEDTAVYYCAADTPPWGPMIYIESYDSWGQGTLVTVSS
Result: 9.55

Task: Supply measured pIC50 of HER3MS00047 (VHH, 21F06 basic + G40A; also called HER3MS0047) VHH: EVQLVESGGGLVQPGGSLRLSCAASGRTYYLNAMGWFRQAPGKDREFVAAIDWSDGNKDYADSVKGRFTISRDNSKNTVYLQMNSLRPEDTAVYYCAADTPPWGPMIYIESYDSWGQGTLVTVSS in your reply.
Result: 9.68

Task: Answer with the recorded pIC50 of 21F06 (VHH, c-myc, His6-tagged form as expressed; also called 21F6; HER3MS21F06) VHH: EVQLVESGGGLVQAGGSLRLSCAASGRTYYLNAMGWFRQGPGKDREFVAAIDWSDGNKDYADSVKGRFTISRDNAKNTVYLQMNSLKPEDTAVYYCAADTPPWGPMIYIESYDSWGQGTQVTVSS only.
Result: 9.60
